# ASSAY SYSTEM: β receptor
# PROCEDURE TEXT: β receptor binding (^3H-Dihydroalprenolol (DHA) binding to crude cardiac microsomal membrane)
# SETUP CONDITIONS: [^3H]DHA 1nM, rat heart microsomal membrane, 25°C, 30 minutes
MEASUREMENT NAME: pKi
Reminder that pKi means the negative base-10 logarithm of the concentration expressed in mol/L.

Fill in the blank: the reported pKi of COC(=O)C1=C(C(F)(F)F)NC(C)=C(C(=O)OCCc2ccc(OCC(O)CNC(C)C)cc2)C1c1cccc([N+](=O)[O-])c1 (stereo not shown) [Dihydropyridine A] is ____.
6.29
